B1: MED27 (parent)
chain: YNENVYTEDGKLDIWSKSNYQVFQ

- Variants of: B1
- Protocol: protein stability index of a GFP-peptide fusion (GPS, HEK-293T) (PSI 1-6); higher = more stable;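 note: lentivirally expressed fusions sorted by FACS into six bins by GFP to DsRed ratio, PSI derived from sequencing read proportions per bin multiplied by bin number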
- Condition Notes: c terminus: a fixed tail appended
protein stability index overview
Observation Type: protein stability index

* YNENVYTEDGKLDIWSKSNAQVFQ | 2.49
* YNENVYTEDGKLDIWSSSNYQVFQ | 1.98
* YNENVYTEDGKLDIWSKSAYQVFQ | 2.52
* YNENVYTEDGKLDIWSESNYQVFQ | 2.37
* YNENVYTEDGKLDIFSKSNYQVFQ | 2.81
* YNENVYTEGGKLDIWSKSNYQVFQ | 1.63
* YNENVYTTDGKLDIWSKSNYQVFQ | 1.93
* YNENGYTEDGKLDIWSKSNYQVFQ | 2.71
* YNENVYTEDGKLDIWSKSNYQIFQ | 2.22
* YNENVYTEDGKLDEWSKSNYQVFQ | 3.87
* YNENVYTEDGKLDIWSKSNYQVLQ | 2.41
* YNENVYTEDGKLMIWSKSNYQVFQ | 1.79
* YNENVYTEDGKLDIWSKSNYQVFS | 1.37
* YNENVYTEDGKLDILSKSNYQVFQ | 3.32
* YNENVYTEDGKLDIWSMSNYQVFQ | 2.3
* YNENVYTEDGKLDIISKSNYQVFQ | 3.31
* YNENVYTEDTKLDIWSKSNYQVFQ | 2.45
* YNENVYTEAGKLDIWSKSNYQVFQ | 1.65
* YNENVYTEDGKGDIWSKSNYQVFQ | 2.63
* YNENVYTEDGKLDIWSNSNYQVFQ | 2.07
* YNENVYTEDGKLDIWSKSNSQVFQ | 2.72
* YNENVYTEDGPLDIWSKSNYQVFQ | 2.13
* YNEYVYTEDGKLDIWSKSNYQVFQ | 1.47
* YNENVYTEDGTLDIWSKSNYQVFQ | 2.43
* YNENVYTEDGGLDIWSKSNYQVFQ | 2.22
* YNENVYPEDGKLDIWSKSNYQVFQ | 2.21
* YNENVYTEDGKLGIWSKSNYQVFQ | 1.88
* YNENVYTEDGKLKIWSKSNYQVFQ | 2.55
* YNMNVYTEDGKLDIWSKSNYQVFQ | 1.59
* YNENVYTEDGKLDIWSKSNYIVFQ | 2.44
* YNRNVYTEDGKLDIWSKSNYQVFQ | 1.41
* YWENVYTEDGKLDIWSKSNYQVFQ | 1.69
* YNENVYTEDGKLDIWQKSNYQVFQ | 2.26
* YNENVFTEDGKLDIWSKSNYQVFQ | 2.55
* YIENVYTEDGKLDIWSKSNYQVFQ | 1.68
* PNENVYTEDGKLDIWSKSNYQVFQ | 3.52
* YNENVYTEDGKLDIWSKSCYQVFQ | 1.59
* YNENVYTEDGKLDIWCKSNYQVFQ | 2.06
* YNENVYTEDGKLDINSKSNYQVFQ | 4.08
* YNHNVYTEDGKLDIWSKSNYQVFQ | 1.92
* YNENVYTEDGKLDIWYKSNYQVFQ | 2.02
* YNENVYTEDGKLDIWPKSNYQVFQ | 2.05
* CNENVYTEDGKLDIWSKSNYQVFQ | 2.9
* YNENVYREDGKLDIWSKSNYQVFQ | 2.06
* YNENVYTEDGKLDIWSKSEYQVFQ | 3.36
* YNENVHTEDGKLDIWSKSNYQVFQ | 2.95
